assay: Binding constant containing a pseudophenylalanine residue
*1 amine or outer side, *2 acyl side, *3 side chain or, on linkers, in order; H or OH if unused. Where a SMILES comes first, the peptide text is derived from it. [ ]: non-standard residue; d: D form. X1 = O=C(CCP(O)(O)=C(Cc1ccccc1)N[*:1])[*:2]; Nle = CCCC[C@H](N)C(=O)O
Readout Kind: Ki (nM)
Unit nM implied. Number only.

Data request: Quote Ki reported for CCCC[C@@H]1NC(=O)[C@@H]2CCCN2C(=O)CCP(O)(O)=C(Cc2ccccc2)NC(=O)[C@@H]2CCCN2C(=O)CNC1=O (cyclo(GP[X1]P[Nle])) please.
Data returned: 120

###

test: Binding constant containing a pseudophenylalanine residue
Readout Kind: pKi
Lab note — pKi values are minus log10 of concentrations in M.

Data request: // fetch pKi given entry CCCCC1NC(=O)[C@H]2CCCN2C(=O)CCP(=O)(O)[C@@H](Cc2ccccc2)NC(=O)[C@@H]2CCCN2C(=O)CCNC1=O (stereo partly specified)
Data returned: 7.05

###

assay: Inhibition of bacterial collagenase from corynebacterium rathaii
*1 amine or outer side, *2 acyl side, *3 side chain or, on linkers, in order; H or OH if unused. Where a SMILES comes first, the peptide text is derived from it. [ ]: non-standard residue; d: D form. PheΨ(PO2HCH2)Gly = O=C(CCP(=O)(O)[C@H](Cc1ccccc1)N[*:1])[*:2]; X2 = O=C(CCP(=O)(O)[C@@H](Cc1ccccc1)N[*:1])[*:2]; X1 = O=C(CCP(O)(O)=C(Cc1ccccc1)N[*:1])[*:2]; Nle = CCCC[C@H](N)C(=O)O
Listed below: pKi values for each entry.
The scale used: pKi is minus the common logarithm of the concentration in molar units.

Reference set, count: 5
INSERT INTO assay_data (molecule, quantitative_readout) VALUES
  ('CCCC[C@@H]1NC(=O)[C@@H]2CCCN2C(=O)CCP(=O)(O)[C@H](Cc2ccccc2)NC(=O)[C@@H]2CCCN2C(=O)CNC1=O', 6.74),
  ('CCCC[C@@H]1NC(=O)[C@@H]2CCCN2C(=O)CCP(O)(O)=C(Cc2ccccc2)NC(=O)[C@@H]2CCCN2C(=O)[C@H](CO)NC1=O (cyclo([Nle]SP[X1]P))', 4.60),
  ('O=C1NCC(=O)N2CCC[C@H]2C(=O)N[C@@H](Cc2ccccc2)P(=O)(O)CCC(=O)N2CCC[C@@H]12', 5.05),
  ('CCCCC1NC(=O)[C@H]2CCCN2C(=O)CCP(=O)(O)[C@@H](Cc2ccccc2)NC(=O)[C@@H]2CCCN2C(=O)CCNC1=O (stereo partly specified)', 7.05),
  ('COC(=O)[C@@H]1CSSC[C@H](NC(C)=O)C(=O)N2CCC[C@H]2C(=O)N[C@H](Cc2ccccc2)P(=O)(O)CCC(=O)N2CCC[C@H]2C(=O)N1', 5.52);

Data request: Report measured pKi; entry is C[C@@H]1NC(=O)[C@@H]2CCCN2C(=O)[C@H](C)NC(=O)CCP(=O)(O)[C@@H](Cc2ccccc2)NC(=O)[C@@H]2CCCN2C(=O)CNC1=O (cyclo(AGP[X2]AP))
Data returned: 4.92

Data request: Supply measured pKi of CCCC[C@@H]1NC(=O)[C@@H]2CCCN2C(=O)CCP(=O)(O)[C@H](Cc2ccccc2)NC(=O)[C@@H]2CCCN2C(=O)[C@H](CO)NC1=O (cyclo([Nle]SP[PheΨ(PO2HCH2)Gly]P)) in your reply.
Data returned: 4.40

Data request: Query pKi for O=C1NCC(=O)N2CCC[C@H]2C(O)N=C(Cc2ccccc2)P(O)(O)=CCC(=O)N2CCC[C@@H]12 (stereo partly specified)
Data returned: 5.22

Data request: Give the reported value of pKi for this record: CCCC[C@@H]1NC(=O)[C@@H]2CCCN2C(=O)CCP(O)(O)=C(Cc2ccccc2)NC(=O)[C@@H]2CCCN2C(=O)CNC1=O (cyclo(GP[X1]P[Nle]))
Data returned: 6.92

Data request: Determine its reported pKi: COC(=O)[C@H]1CSSC[C@@H](NC(C)=O)C(=O)N2CCC[C@@H]2C(=O)N[C@@H](Cc2ccccc2)P(=O)(O)CCC(=O)N2CCC[C@@H]2C(=O)N1
Data returned: 4.35

Data request: State, in one line, measured pKi of C[C@@H]1NC(=O)[C@@H]2CCCN2C(=O)[C@H](C)NC(=O)CCP(=O)(O)[C@H](Cc2ccccc2)NC(=O)[C@@H]2CCCN2C(=O)CNC1=O (cyclo(AGP[PheΨ(PO2HCH2)Gly]AP))
Data returned: 4.70
